Please find below IC50 measurements for MAGL (Homo sapiens, UniProt Q99685), combined from several publications.
Form entry: value (µM) — number only.

Consider the following illustrative entries.
- smiles.representation: "O=C(c1cccc(-c2ccccn2)c1Cl)N1CCN2C[C@@H](c3ccc(F)c(Cl)c3)OC[C@@H]2C1"
  target.of.assay: "MAGL (Homo sapiens, UniProt Q99685)"
  observed.measurement: 0.0492
- smiles.representation: "O=C(c1cc(F)c2c(ccn2-c2ccc(F)cc2)c1)N1CC(N2CCN(C(=O)c3cscn3)CC2)C1"
  target.of.assay: "MAGL (Homo sapiens, UniProt Q99685)"
  observed.measurement: 0.016

Shifting focus to the compound that follows.
Q: // fetch MAGL (Homo sapiens, UniProt Q99685) IC50 for COC1(C)CN(c2ccc(C3CN(C(=O)N4CC[C@@H]5OCC(=O)N[C@@H]5C4)C3)cc2)C1
Result: 0.015

* * *

Please find below IC50 measurements for MAGL (Homo sapiens, UniProt Q99685), combined from several publications.
Form entry: value (nM) — number only.

Consider the following illustrative entries.
- compound: "O=C(OCCc1cnn[nH]1)N1CC(OCc2ccc(C(F)(F)F)cc2F)C1"
  parameter.measured: "IC50"
  output.unit: "nM"
  observed.measurement: 19
- compound: "O=C(c1ccc2nc(C(F)(F)F)cc(Cl)c2c1)N1CC(N2CCN(C(=O)c3nccs3)CC2)C1"
  parameter.measured: "IC50"
  output.unit: "nM"
  observed.measurement: 944
- compound: "CS(=O)(=O)c1cc(Cl)ccc1-c1ccc(C2CN(C(=O)CC[C@@H]3COC(=O)N3)C2)nc1"
  parameter.measured: "IC50"
  output.unit: "nM"
  observed.measurement: 2
- compound: "Cc1c(C(=O)N2CCC(C3CN(C(=O)c4cscn4)C3)CC2)sc2cc(C(F)(F)F)ccc12"
  parameter.measured: "IC50"
  output.unit: "nM"
  observed.measurement: 211

Q: // fetch MAGL (Homo sapiens, UniProt Q99685) IC50 for Cc1noc(CC(c2ccc(F)cc2)C2CCN(C(=O)N3CC[C@@H]4OCC(=O)N[C@@H]4C3)CC2)n1 (single isomer, unassigned)
Result: 67

Q: // fetch MAGL (Homo sapiens, UniProt Q99685) IC50 for CC(C)(C)Cn1cc(-c2ccc(C(=O)N3CCN(c4nc5nc(Cl)ccc5o4)CC3)cc2C#N)nn1
Result: 20

Q: // fetch MAGL (Homo sapiens, UniProt Q99685) IC50 for O=C(c1ccc2c(ccn2-c2ccc(C(F)(F)F)cc2)c1)N1CCC(C2CN(C(=O)c3cscn3)C2)CC1
Result: 11.4

Q: // fetch MAGL (Homo sapiens, UniProt Q99685) IC50 for O=C(c1ccc(Oc2cccc(C(F)(F)F)c2)nc1)N1CC(N2CCN(C(=O)c3nccs3)CC2)C1
Result: 10

Q: // fetch MAGL (Homo sapiens, UniProt Q99685) IC50 for O=C(c1ccccc1)N1CCN(C2CN(C(=O)c3ccc(S(=O)(=O)c4cccc(C(F)(F)F)c4)cc3)C2)CC1
Result: 107

Q: // fetch MAGL (Homo sapiens, UniProt Q99685) IC50 for O=C1CO[C@H]2CCN(C(=O)N3CC(C#Cc4ccc(OC(F)F)cc4)C3)C[C@H]2N1
Result: 22

Q: // fetch MAGL (Homo sapiens, UniProt Q99685) IC50 for Cc1cc(C(=O)N2CC(N3CCN(C(=O)c4ccns4)CC3)C2)ccc1-c1cccc(C(F)(F)F)c1
Result: 16

Q: // fetch MAGL (Homo sapiens, UniProt Q99685) IC50 for O=C1N[C@H](CCC(=O)N2CC(c3ccc(C4(C(F)(F)F)CC4)cc3)C2)CO1
Result: 1

Q: // fetch MAGL (Homo sapiens, UniProt Q99685) IC50 for CC1(F)CN(c2cccc(OC3CN(C(=O)N4CC[C@@H]5OCC(=O)N[C@@H]5C4)C3)c2Cl)C1
Result: 89
